The measurements presented in this section are drawn from the RNAGym collection of RNA variant scans (doi:10.7554/elife.90254).

Can you tell me self-cleavage for the items I'm about to list?
B1: LINE1-mini (parent)
chain: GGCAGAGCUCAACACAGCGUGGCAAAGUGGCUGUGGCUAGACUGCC

variants of: B1; assay: self-cleavage, relative activity (ratio to wild type); higher = more cleavage; in vitro, sequencing; the parent is a self-cleaving ribozyme
Reply with just the number.

Request the reported self-cleavage associated with U20G G22A
0.55

Request the reported self-cleavage associated with A24G G36C
0.11

Request the reported self-cleavage associated with G17U U32A
0.08

Request the reported self-cleavage associated with G29U C31U
0.19

Request the reported self-cleavage associated with G5C A6G
0.09

Request the reported self-cleavage associated with A24C C46G
0.27

Request the reported self-cleavage associated with A6C G40A
0.11

Request the reported self-cleavage associated with C13A C46G
0.06

Request the reported self-cleavage associated with G7U C46A
0.19

Request the reported self-cleavage associated with G29U G40U
0.18

Request the reported self-cleavage associated with C18A G29A
0.69
